System: SN12C renal
assay.method.text: NCI-60 one-dose screen, 48 h (100 = growth as untreated, 0 = no growth, -100 = all killed)
assay.context: 10 µM unless noted
The panel holds about 83,000 compounds, 20% with a hit somewhere; the sample as a whole holds those more often.
Listed here are compounds together with their documented growth.

# compound, growth / %
measured = [
    ("CCCn1c(NC(=O)c2cccc(C(N)=O)c2)nc2ccc(CN3CCCCC3)cc21", 88),
    ("COc1ccc2c(c1)C(Sc1ccc(Cl)cc1)c1c(nc(N)c(C#N)c1N)O2 (centres undefined)", 55.7),
    ("CC1CCc2c(sc3nc(SCC(=O)c4cccc(Br)c4)n(-c4ccccc4)c(=O)c23)C1 (centres undefined)", 32.8),
    ("COc1c(B(O)O)cc(F)cc1-c1nc2c(F)cc3[nH]ncc3c2c2c1CCCC2", 17.2),
    ("COC(=O)c1cc(C(=O)C(F)(F)F)n2c3ccccc3c3ccccc3c12", 53.1),
    ("Cn1cc(-c2cc(N)n3nc(-c4c[nH]c5ccc(Cl)cc45)cc3n2)c2cccnc21", -80),
    ("Cc1oc(-c2ccccc2)nc1CN[C@@H]1C[C@@H]2C[C@H]([C@H]1C)C2(C)C", 10.1),
    ("Nc1nn2c(-c3cc4cc(Br)ccc4oc3=O)ccnc2c1N=Nc1ccc(Br)cc1", -23.6),
    ("FC(F)(F)c1cc2c(Cl)ncnc2n1CCN1CCOCC1", 75.6),
]

* * *

Test system: U251 CNS
assay.method.text: NCI-60 one-dose screen, 48 h
assay.context: 10 µM unless noted
About 83,000 compounds went through this panel and 20% of them were active in at least one assay; those are over-represented in the sample as a whole. Active and inactive are the calls of the source. Rule for the calls: active = growth percent below 10; inactive = the rest.
Outcomes: yes (1) (active), no (0) (inactive)

# molecule, class.label
records = [
    ("COc1cc(NC(=O)C(C)C)ccc1C(=O)NC(=S)Nc1ccc(S(N)(=O)=O)cc1", "no (0)"),
    ("COc1ccc(N=Nc2c(N)nn3c(N)c(C#N)c(-c4ccccc4)nc23)cc1", "no (0)"),
    ("CC1=C(C)C(=O)C(N2CCSCC2)=CC1=O", "no (0)"),
    ("COc1ccc2nc(NC(=O)c3ccc(N(C)C)cc3)sc2c1", "no (0)"),
    ("COc1ccccc1NC(=O)c1ccc(NC(=O)CCl)s1", "yes (1)"),
    ("COC(=O)c1cc(C(=O)C(F)(F)F)n2c3ccccc3c3ccccc3c12", "no (0)"),
    ("Cc1nc2sccn2c1-c1nnc(SCC(C)C)o1", "no (0)"),
    ("COc1ccc(SC2c3cc(OC)ccc3Oc3nc(N)c(C#N)c(N)c32)cc1 (stereo not given)", "no (0)"),
    ("Cc1ccc(C(=O)Nc2ccc(-n3ccnc3)c(C(F)(F)F)c2)cc1C#Cc1cnc2cccnn12", "no (0)"),
    ("O=C(NN1C(=O)/C(=C/C=C/c2ccc([N+](=O)[O-])o2)SC1=S)c1ccc(O)cc1", "yes (1)"),
    ("NS(=O)(=O)c1ccc(N2N=C(c3ccc(NC(=O)Nc4ccccc4)cc3)CC2c2ccc(Br)cc2)cc1 (stereo not given)", "yes (1)"),
    ("Nc1nnc(-c2cncc(Br)c2)c(-c2c[nH]c3ccc(Br)cc23)n1", "no (0)"),
    ("COc1ccc2[nH]c(O)c(N=Nc3nc(-c4ccc(C#N)cc4)cs3)c2c1", "no (0)"),
    ("C/C(=N/O)c1ccc(NC(=O)CSc2nnc(-c3ccc(-c4nc5ccc(Cl)cc5[nH]4)cc3)o2)cc1", "yes (1)"),
    ("O=C(CSc1nnc(-c2ccc(-c3nc4ccc(Cl)cc4[nH]3)cc2)o1)Nc1ccc(Cl)cc1", "yes (1)"),
    ("O=C1Nc2cc(-c3ccc(NS(=O)(=O)c4ccc(C(F)(F)F)cc4)cc3)ccc2/C1=C/c1ccc[nH]1", "no (0)"),
    ("O=C(N=Nc1c(O)[nH]c2ccc(Cl)cc12)c1ccc2nc(-c3ccc(Cl)cc3)[nH]c2c1", "yes (1)"),
    ("COc1ccc(/C=C/C(=O)c2ccc(OC)c(S(N)(=O)=O)c2)c(C(F)(F)F)c1", "yes (1)"),
    ("O=C(c1ccc(Cl)cc1)C1[C@H](c2ccccc2Cl)[C@@H](c2ccccc2)NC12C(=O)Nc1ccc(Br)cc12 (stereo not given in full)", "yes (1)"),
    ("COC(=O)c1cc(C(=O)C(C)(C)C)n2c3ccccc3c3ccccc3c12", "no (0)"),
    ("Cc1ccc(C2CC(c3ccc(NC(=O)Nc4ccccc4)cc3)=NN2c2ccc(S(C)(=O)=O)cc2)cc1 (stereo not given)", "yes (1)"),
    ("O=C(Nc1ccc(Br)cc1)Nc1ccc(-c2ccc3c(c2)NC(=O)/C3=C\\c2ccc[nH]2)cc1", "no (0)"),
    ("Nc1nn2c(-c3cc4cc(Br)ccc4oc3=O)ccnc2c1N=Nc1ccc(S(N)(=O)=O)cc1", "no (0)"),
    ("Nc1cc(-c2c[nH]c3ccc(F)cc23)nc2cc(-c3c[nH]c4ccccc34)nn12", "yes (1)"),
    ("COc1ccc(-c2cc(C(=O)Oc3ccc(C=O)cc3OC)nn2-c2ccc(S(C)(=O)=O)cc2)cc1", "no (0)"),
]

All values here come from PubChem BioAssay (NCI).
